Non-standard residues stand in square brackets, D forms with d. Residues, ends and D or L forms follow the SMILES beside them. ξ: configuration not given here. *: point of attachment. Boc = CC(C)(C)OC(=O)*; ξA = CC(N)C(=O)O
Quantity kind: melting point

Recorded results for 5 compounds are shown here.
Request: GET /values?readout=melting point&item= O=C(Nc1nc(=O)n(S(=O)(=O)c2ccccc2)cc1F)Oc1ccccc1
Result: 182 to 185 °C

Request: GET /values?readout=melting point&item= COC(=O)CNC(=O)C(C)NC(=O)CNC(=O)CNC(=O)OC(C)(C)C (stereo not given) (Boc-GG[ξA]G-OMe)
Result: 103 to 105 °C

Request: GET /values?readout=melting point&item= CC(=O)Nc1nc2ccccc2n1-c1nc(N2CCOCC2)nc(N2CCOCC2)n1
Result: 150 to 153 °C

Request: GET /values?readout=melting point&item= CSCCCCCn1c(C)nc2c(N)nc(C)c(C)c21
Result: 121 to 122 °C

Request: GET /values?readout=melting point&item= CCOC(=O)C(Cc1ccc(OC)cc1)c1cc2cc(Br)ccc2s1 (stereo not given)
Result: 62 to 65 °C

***
Request: GET /values?readout=melting point&item= CCN1CCCCC1c1ccccc1C=CC(=O)Nc1ccccc1 (stereo not given)
Result: 120 to 122 °C

---

Quantity kind: melting point

Request: GET /values?readout=melting point&item= CC(=O)c1c(C)c2cnc(Nc3ccc(N4CCNCC4)nc3)nc2n(C2CCCC2)c1=O
Result: 125 °C

Request: GET /values?readout=melting point&item= COc1cc(Nc2c(C#N)cnc3cc(-n4cccc4)c(OC)cc23)c(Cl)cc1Cl
Result: 229 to 230 °C

Request: GET /values?readout=melting point&item= O=C1ONCC12CCOc1ccc(F)cc12 (centres undefined)
Result: 153 to 155 °C

***
Request: GET /values?readout=melting point&item= O=C(c1ccncc1)N1CCN(Cc2ccc3c(c2)Cc2c(-c4ccsc4)n[nH]c2-3)CC1
Result: 218 to 220 °C

Request: GET /values?readout=melting point&item= CC(C)(C)OC(=O)NCCCCNC(=O)COc1ccc(Cl)cc1Cl
Result: 107 °C

Request: GET /values?readout=melting point&item= CC(C)OCC1(C(C)(F)F)c2cc(Cl)ccc2Nc2ncccc21 (centres undefined)
Result: 148 to 149 °C

Request: GET /values?readout=melting point&item= CC(C)CC(NCC(=O)NOCc1ccccc1)C(=O)NC(Cc1ccc2ccccc2c1)C(=O)NC(C)C(N)=O (centres undefined)
Result: 205 to 212 °C

Request: GET /values?readout=melting point&item= CN1Cc2c(-c3noc(CCl)n3)ncn2-c2cccc(F)c2C1=O
Result: 206 °C

Request: GET /values?readout=melting point&item= Cc1cc(COc2cccc3c2CN(C2CCC(=O)NC2=O)C3=O)ccc1Cl (centres undefined)
Result: 217 to 219 °C

---

Quantity kind: melting point

Recorded results for 8 compounds are shown here.
Request: GET /values?readout=melting point&item= c1ccc(C2=NC(c3ccccn3)(c3ccccn3)N=C2c2ccccc2)cc1
Result: 214 to 216 °C

Request: GET /values?readout=melting point&item= C/C(=C(\C#N)C(N)=S)N1CCCCCC1
Result: 158 to 161 °C

Request: GET /values?readout=melting point&item= CCOC(=O)C(C)Oc1cc(N=C(C(N)=O)N2CCCC2)c(Cl)cc1Cl (stereo not given)
Result: 160 to 163 °C

Request: GET /values?readout=melting point&item= COCCOC(=O)Nc1cccc(C)c1CCl
Result: 100 to 102 °C

Request: GET /values?readout=melting point&item= O=C1NC(=O)C(Cc2ccc3cc(OCc4ccccc4F)ccc3c2)S1 (stereo not given)
Result: 150 to 152 °C

Request: GET /values?readout=melting point&item= CC1(C)N=C(c2ccccc2Cl)c2cc([N+](=O)[O-])cc(Cl)c2NC1=O
Result: 121 °C

Request: GET /values?readout=melting point&item= CCN(CC)C(=O)c1ccc(C(=O)N2CCN(c3ncccc3NC(C)C)CC2)nc1
Result: 100 to 102 °C

Request: GET /values?readout=melting point&item= O=[N+]([O-])c1ccc2c(c1)CN[C@H](CO)C2
Result: 184 °C

***
Request: GET /values?readout=melting point&item= CC(C)C[C@H](NC(=O)[C@H](Cc1ccccc1)NC(=O)C1CCCCC1S)C(=O)O (stereo not given in full)
Result: 180 to 183 °C

Request: GET /values?readout=melting point&item= COc1ccc2c(-c3sccc3C)noc2c1Cl
Result: 154 to 156 °C

---

We begin with a simple list: items and their reported melting point.

Recorded results for 9 compounds are shown here.
Request: GET /values?readout=melting point&item= CCN1CCc2cc3ccccc3n2CC1
Result: 44 to 46 °C

Request: GET /values?readout=melting point&item= COc1ccc(Nc2cncc(-c3cccc(NC(=O)c4ccccc4)c3)c2)cc1
Result: 135 to 140 °C

Request: GET /values?readout=melting point&item= CC(=O)NCc1cn(-c2ccc(-n3cccc3)c(F)c2)nn1
Result: 210 to 215 °C

Request: GET /values?readout=melting point&item= O=c1oc(-c2cccc(Cl)c2)ns1
Result: 83 to 84.5 °C

Request: GET /values?readout=melting point&item= O=C(Nc1cccc2cc(C(=O)N3CCCCC3)[nH]c12)c1cccs1
Result: 131 to 132 °C

Request: GET /values?readout=melting point&item= CN(CCOc1ccccc1)[C@H]1CC[C@H](c2ccc(OCc3ccccc3)cc2)CC1
Result: 67 to 69 °C

Request: GET /values?readout=melting point&item= COc1ccc2c(c1)c(C)cn2CCCCCC(=O)O
Result: 134 to 137 °C

Request: GET /values?readout=melting point&item= O=C(O)C(=NO)C(c1ccc(OCc2ccc3cc(F)ccc3n2)cc1)c1ccc(OCc2ccc3cc(F)ccc3n2)cc1
Result: 107 °C

Request: GET /values?readout=melting point&item= COc1ccc2c(c1)C(=O)C(=O)C=C2
Result: 78 to 80 °C

***
Request: GET /values?readout=melting point&item= CN(C)CCN(C(=O)OC(C)(C)C)C1=NCC(=O)N(C)c2ccccc21
Result: < 35 °C

---

We begin with a simple list: items and their reported melting point.

Recorded results for 5 compounds are shown here.
Request: GET /values?readout=melting point&item= COC(=O)c1cccc(OCCCNC(=O)C[C@H]2O[C@H](c3cccc(OC)c3OC)c3cc(Cl)ccc3N(CC(C)(C)CO)C2=O)c1
Result: 99 to 100 °C

Request: GET /values?readout=melting point&item= N#CC1C(=O)NC(=O)C(C(=O)OCc2ccccc2)C12CCCCC2 (centres undefined)
Result: 153 to 156 °C

Request: GET /values?readout=melting point&item= CC(=O)OC1CSC(Oc2cncc(-c3c(C)nn(C)c3C)c2)C(OC(C)=O)C1OC(C)=O (centres undefined)
Result: 166 °C

Request: GET /values?readout=melting point&item= CCC(CC)c1ccc(Cl)c2nc3n(c12)CCCC(=O)N3c1ccc(Cl)cc1Cl
Result: 135 to 137 °C

Request: GET /values?readout=melting point&item= CC(C)(C)OC(=O)NC(Cc1ccccc1)C(O)CNCC(O)C(Cc1cccc(OCc2ccccc2)c1)NC(=O)OC(C)(C)C (centres undefined)
Result: 125 to 145 °C

***
Request: GET /values?readout=melting point&item= CCCN1C(=O)N2CCN=C2c2c1ncn2C
Result: 110 to 112 °C

---

Quantity kind: melting point

Request: GET /values?readout=melting point&item= Nc1nc(-c2ccc3c(c2)OCCO3)c(-c2ccccn2)s1
Result: 214 °C

Request: GET /values?readout=melting point&item= COc1cc(C)nc(S(C)(=O)=O)n1
Result: 80 °C

Request: GET /values?readout=melting point&item= COc1ccc(C(=O)Nc2ccccc2)cc1Oc1ccccc1
Result: 200 to 201 °C

Request: GET /values?readout=melting point&item= CC(C)(C#N)c1cc(Cn2cncn2)cc(C(N)=O)c1
Result: 144 to 145 °C

Request: GET /values?readout=melting point&item= CCCn1nc(OCc2ccc3ccccc3n2)cc1CO
Result: 95 to 96 °C

***
Request: GET /values?readout=melting point&item= CCCCCCCOc1ccc(C2CC(CCCCCC)C(=O)O2)cc1 (stereo unspecified)
Result: 45.9 to 47 °C

Request: GET /values?readout=melting point&item= Cc1ccc(-c2c(NS(=O)(=O)c3ccc(C(C)(C)C)cc3)nc(S(C)(=O)=O)nc2OCCOCc2ccccc2)cc1
Result: 129 to 130 °C

Request: GET /values?readout=melting point&item= CS(=O)(=O)OC[C@@H](O)COc1ccc(C#N)cc1
Result: 119 to 121 °C

---

We begin with a simple list: items and their reported melting point.

Recorded results for 5 molecules are shown here.
Request: GET /values?readout=melting point&item= O=C(O)C1CCCN1C(=O)COc1ccccc1 (configuration not stated)
Result: 109 to 111 °C

Request: GET /values?readout=melting point&item= COCCOc1cc(N)c([N+](=O)[O-])cc1I
Result: 121 to 122 °C

Request: GET /values?readout=melting point&item= CCCCc1ncc(C=C2C(=O)Nc3ccccc32)n1Cc1ccc(C(=O)OC)cc1Cl
Result: 219 to 220 °C

Request: GET /values?readout=melting point&item= FC(F)(F)C=NNc1c(Cl)cc(C(F)(F)F)cc1Cl
Result: 45 to 46 °C

Request: GET /values?readout=melting point&item= NCCCP(=O)(O)C1CCCCC1
Result: 202 to 203 °C

***
Request: GET /values?readout=melting point&item= Cc1ccn(-c2ccc(C(=O)O)c(Cl)c2)n1
Result: 192 to 193 °C

Request: GET /values?readout=melting point&item= COc1ccc2c(c1)c1c(n2C)C(=O)NCCO1
Result: 184 to 186 °C

Request: GET /values?readout=melting point&item= O=C1Nc2ccc(Cl)cc2C1c1ncnc2c1cnn2C1CCCCC1 (configuration not stated)
Result: 300 to 305 °C

Request: GET /values?readout=melting point&item= C=CCc1cccc2c(=O)cc(-c3ccccc3F)oc12
Result: 78 to 81 °C

Request: GET /values?readout=melting point&item= Cc1nccn1CC(COc1cccc(Cl)c1)Sc1c(Cl)cccc1Cl (configuration not stated)
Result: 162 to 163 °C

Request: GET /values?readout=melting point&item= CNC(=O)C(=O)CCCCCCSc1nc(-c2ccccc2)cs1
Result: 107 to 108 °C

Request: GET /values?readout=melting point&item= COc1cc(-c2ccc(Br)cc2)oc1-c1ccc(Br)cc1
Result: 112 to 113 °C

Request: GET /values?readout=melting point&item= Cc1cccc2nc3sccn3c(=O)c12
Result: 148 to 150 °C

Request: GET /values?readout=melting point&item= COc1ccc(N2CCOCC2)c2sc(C(=O)NCC(=O)c3ccccc3)nc12
Result: 165 °C

Request: GET /values?readout=melting point&item= NNc1nc2ccc(OC(F)(F)F)cc2s1
Result: 208 °C

Request: GET /values?readout=melting point&item= N#C/C=C/c1coc2ccccc2c1=O
Result: 192 to 194 °C
